# target-of-assay: hFASN enzyme (full length) (Homo sapiens)
# Construct: 10 μL hFASN enzyme (full length, 300 ng, purified in house); made in house
# protocol: Fatty Acid Synthase (FASN) inhibition scintillation proximity assay
# Type: biochemical
# condition-info: read-out: Human FASN % inhibition @ 10 μM, 10 μM test compound
Would you kindly list inhibition at 10 µM for each of these compounds?
Mention the unit after the number when you answer.

# compound `O=C(C1CC1)N1CC[C@@H](CN2C(=O)C3(CCCC3)N=C2c2ccc(-c3cccc4[nH]ncc34)cc2)C1` ; its inhibition at 10 µM = 111%

# compound `Cc1cc(-c2ccc3nn(C)c(CO)c3c2)ccc1C1=NC2(CC2)C(=O)N1CC1CN(C(=O)C2CC2)C1` ; its inhibition at 10 µM = 70%

# compound `O=C(C1CC1)N1CC(CN2C(=O)C3(CC3)N=C2c2ccc(-c3ccc4occc4c3)cc2)C1` ; its inhibition at 10 µM = 101%

# compound O=C(C1CCO1)N1CC(CN2C(=O)C3(CC3)N=C2c2ccc(-c3ccc4cc(F)ccc4c3)cc2F)C1 (stereo not shown) ; its inhibition at 10 µM = 102%

# compound Cn1cc(-c2ccc(-c3ccc(C4=NC5(CCOC5)C(=O)N4CC4CN(C(=O)C(F)(F)F)C4)cc3)cc2)cn1 (stereo not shown) ; its inhibition at 10 µM = -10%

# compound COC(=O)N1CC2(C1)N=C(c1ccc(-c3ccc4occc4c3)cc1)N(C[C@@H]1CCN(C(=O)C(C)O)C1)C2=O (stereo partly shown) ; its inhibition at 10 µM = 84%

# compound `O=C(C1CC1)N1CC[C@@H](CN2C(=O)C3(CCCC3)N=C2c2ccc(-c3ccc4[nH]ccc4c3)cc2F)C1` ; its inhibition at 10 µM = 106%

# compound `Cc1cc2ccc(-c3ccc(C4=NC5(CC5)C(=O)N4CC4CN(C(=O)C5CC5)C4)cc3)cc2nc1Cl` ; its inhibition at 10 µM = 75%

# compound `O=C(C1CC1)N1CC(CN2C(=O)C3(CC3)N=C2c2ccc(-c3ccc4cncnc4c3)cc2)C1` ; its inhibition at 10 µM = 97%

# compound `O=C(C1CC1)N1CC[C@@H](CN2C(=O)C3(CC3)N=C2c2ccc(-c3ccc4c(c3)COCC4)cc2)C1` ; its inhibition at 10 µM = 94%

----------
# target-of-assay: hFASN enzyme (full length) (Homo sapiens, UniProt P49327)
# Construct: 10 μL hFASN enzyme (full length, 300 ng, purified in house); made in house
# Sequence (P49327 whole entry): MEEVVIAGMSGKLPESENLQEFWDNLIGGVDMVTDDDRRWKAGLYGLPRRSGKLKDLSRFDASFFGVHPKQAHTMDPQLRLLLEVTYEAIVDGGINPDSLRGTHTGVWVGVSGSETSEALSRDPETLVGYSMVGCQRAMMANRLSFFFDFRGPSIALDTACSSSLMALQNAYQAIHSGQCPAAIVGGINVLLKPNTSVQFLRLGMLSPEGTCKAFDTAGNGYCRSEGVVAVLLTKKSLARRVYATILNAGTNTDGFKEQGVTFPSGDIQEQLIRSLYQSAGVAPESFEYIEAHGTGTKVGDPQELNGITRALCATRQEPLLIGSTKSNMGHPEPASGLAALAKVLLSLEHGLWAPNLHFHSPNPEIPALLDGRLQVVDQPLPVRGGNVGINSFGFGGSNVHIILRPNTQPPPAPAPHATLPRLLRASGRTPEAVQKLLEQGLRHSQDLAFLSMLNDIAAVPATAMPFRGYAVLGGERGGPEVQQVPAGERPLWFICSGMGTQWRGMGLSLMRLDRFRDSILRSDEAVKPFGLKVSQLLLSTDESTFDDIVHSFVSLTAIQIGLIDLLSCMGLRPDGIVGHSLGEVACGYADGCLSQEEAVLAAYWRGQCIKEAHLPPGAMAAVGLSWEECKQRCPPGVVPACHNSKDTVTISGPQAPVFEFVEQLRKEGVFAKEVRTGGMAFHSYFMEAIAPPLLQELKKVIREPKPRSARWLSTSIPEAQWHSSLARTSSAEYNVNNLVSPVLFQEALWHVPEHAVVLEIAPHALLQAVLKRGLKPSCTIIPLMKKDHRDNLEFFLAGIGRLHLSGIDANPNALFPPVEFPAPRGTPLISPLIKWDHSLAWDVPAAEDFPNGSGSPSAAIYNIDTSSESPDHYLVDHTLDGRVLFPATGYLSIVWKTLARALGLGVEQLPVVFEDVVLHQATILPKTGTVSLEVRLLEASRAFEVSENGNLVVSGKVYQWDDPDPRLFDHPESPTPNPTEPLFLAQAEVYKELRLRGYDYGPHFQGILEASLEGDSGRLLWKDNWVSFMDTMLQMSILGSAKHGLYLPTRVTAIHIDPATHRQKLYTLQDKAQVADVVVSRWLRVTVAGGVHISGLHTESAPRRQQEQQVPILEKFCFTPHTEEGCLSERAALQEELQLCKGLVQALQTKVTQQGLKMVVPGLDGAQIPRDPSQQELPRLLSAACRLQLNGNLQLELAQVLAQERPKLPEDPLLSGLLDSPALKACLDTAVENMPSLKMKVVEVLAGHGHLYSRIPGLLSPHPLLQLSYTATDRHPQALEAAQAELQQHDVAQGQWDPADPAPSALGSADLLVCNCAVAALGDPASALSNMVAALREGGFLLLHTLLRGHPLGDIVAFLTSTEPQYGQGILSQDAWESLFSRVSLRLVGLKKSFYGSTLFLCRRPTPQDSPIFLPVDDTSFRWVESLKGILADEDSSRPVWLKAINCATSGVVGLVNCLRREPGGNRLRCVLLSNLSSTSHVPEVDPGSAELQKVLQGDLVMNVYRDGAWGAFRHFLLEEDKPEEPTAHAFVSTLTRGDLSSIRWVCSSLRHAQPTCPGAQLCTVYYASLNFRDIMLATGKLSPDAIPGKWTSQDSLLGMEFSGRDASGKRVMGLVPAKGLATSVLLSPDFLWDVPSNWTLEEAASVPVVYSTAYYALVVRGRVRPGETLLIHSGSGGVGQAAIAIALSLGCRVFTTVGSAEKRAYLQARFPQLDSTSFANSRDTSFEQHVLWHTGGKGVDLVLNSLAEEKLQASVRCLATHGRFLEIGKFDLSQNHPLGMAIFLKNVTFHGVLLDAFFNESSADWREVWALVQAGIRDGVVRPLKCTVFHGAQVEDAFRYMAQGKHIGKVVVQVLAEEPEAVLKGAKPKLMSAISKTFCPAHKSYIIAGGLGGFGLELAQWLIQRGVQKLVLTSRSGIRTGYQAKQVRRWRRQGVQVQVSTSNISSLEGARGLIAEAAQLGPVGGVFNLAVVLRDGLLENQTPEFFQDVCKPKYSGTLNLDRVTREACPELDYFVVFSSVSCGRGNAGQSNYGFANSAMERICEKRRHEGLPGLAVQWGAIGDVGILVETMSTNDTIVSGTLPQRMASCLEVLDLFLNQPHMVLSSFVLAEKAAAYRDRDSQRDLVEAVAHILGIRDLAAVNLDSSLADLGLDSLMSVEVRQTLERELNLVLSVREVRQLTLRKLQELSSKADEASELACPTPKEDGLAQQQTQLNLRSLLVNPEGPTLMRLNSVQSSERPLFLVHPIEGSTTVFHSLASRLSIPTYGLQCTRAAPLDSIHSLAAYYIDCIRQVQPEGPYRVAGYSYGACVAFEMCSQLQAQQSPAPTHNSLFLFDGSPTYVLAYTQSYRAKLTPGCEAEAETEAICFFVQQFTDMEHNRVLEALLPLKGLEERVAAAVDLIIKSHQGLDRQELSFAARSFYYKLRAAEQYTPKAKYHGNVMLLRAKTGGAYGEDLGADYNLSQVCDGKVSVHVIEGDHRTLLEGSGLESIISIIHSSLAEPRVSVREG
# protocol: Fatty Acid Synthase (FASN) inhibition scintillation proximity assay
# Format: biochemical
# condition-info: read-out: Human FASN % inhibition @ 10 μM, 10 μM test compound
Would you kindly list inhibition at 10 µM for each of these compounds?
Number in %, nothing else.

# compound O=C(C1CC1)N1CC(CN2C(=O)C3(CCOC3)N=C2c2ccc(-c3ccc4occc4c3)cc2)C1 (stereo not drawn) [compound 718] ; its inhibition at 10 µM = 72

# compound O=C(C1CC1)N1CCC(CN2C(=O)C3(CC3)N=C2c2ccc(-c3ccc(C(F)(F)F)cc3)cc2)CC1 [compound 107] ; its inhibition at 10 µM = 10.6

# compound Cc1cc(-c2ccc(C3=NC4(CC4)C(=O)N3CC3CN(C(=O)C4CC4)C3)cc2)cc2cnn(C)c12 [compound 492] ; its inhibition at 10 µM = 77

# compound O=C(C1CC1)N1CCC[C@@H](CN2C(=O)C3(CC3)N=C2c2ccc(-c3ccc4[nH]ncc4c3)cc2)C1 [compound 389] ; its inhibition at 10 µM = 56

# compound Cc1cc(-c2ccc3c(c2)c(CO)nn3C)ccc1C1=NC2(CC2)C(=O)N1CC1CN(C(=O)C2CC2)C1 [compound 586] ; its inhibition at 10 µM = 93

# compound Cn1ncc2cc(-c3ncc(C4=NC5(CC5)C(=O)N4C[C@@H]4CCN(C(=O)C5CC5)C4)cn3)ccc21 [compound 459] ; its inhibition at 10 µM = 43

# compound N#Cc1cc2cc(-c3ccc(C4=NC5(CC5)C(=O)N4C[C@@H]4CCN(C(=O)C5CC5)C4)cc3F)ccc2o1 [compound 463] ; its inhibition at 10 µM = 93

# compound Cc1cccc(-c2ccc(C3=NC4(CC4)C(=O)N3CC3CCN(C(=O)C4CC4)CC3)cc2)c1 [compound 111] ; its inhibition at 10 µM = 62.2

# compound Cc1cc(-c2ccc3c(cnn3C)c2)ccc1C1=NC2(CC2)C(=O)N1CC1CN(C(=O)N(C)C)C1 [compound 488] ; its inhibition at 10 µM = 88

----------
# Test system: LNCaP-Vancouver prostate cells
# protocol: In vitro LNCaP Vancouver prostate cell proliferation assay in lipid reduced medium
# Format: cell-based
# condition-info: read-out: pIC50 LNCaP_Vancouver prostate cell (converted)
quantity-name: IC50 (nM)
Number in nM, nothing else.

# molecule `CCn1ncc2cc(-c3ccc(C4=NC5(CC5)C(=O)N4CC4CN(C(=O)C5CC5)C4)c(F)c3)ccc21` ; its IC50 = 1910

# molecule `Cn1nc(CO)c2ccc(-c3ccc(C4=NC5(CC5)C(=O)N4C[C@@H]4CCN(C(=O)C5CC5)C4)cc3)cc21` ; its IC50 = 631

# molecule `Cc1cc(-c2ccc3cc(Cl)cnc3c2)ccc1C1=NC2(CC2)C(=O)N1CC1CN(C(=O)C2(C)CC2)C1` ; its IC50 = 93.3

# molecule `Cn1cc(-c2ccc(-c3ccc(C4=NC5(CC5)C(=O)N4C[C@@H]4CCN(C(=O)C5CC5)C4)cc3)cc2)cn1` ; its IC50 = 66.1

# molecule `Cc1cc2cc(-c3ccc(C4=NC5(CC5)C(=O)N4C[C@@H]4CCN(C(=O)C5(O)CC5)C4)c(F)c3)ccc2s1` ; its IC50 = 245

# molecule `Cn1ccc(-c2ccc(-c3ccc(C4=NC5(CC5)C(=O)N4CC4CN(C(=O)C5CC5)C4)c(F)c3)cc2)n1` ; its IC50 = 1000

# molecule `O=C(C1CC1)N1CC[C@@H](CN2C(=O)C3(CC3)N=C2c2ccc(-c3ccc4[nH]ccc4c3)nc2)C1` ; its IC50 = 1740

# molecule `Cc1cc2cc(-c3ccc(C4=NC5(CC5)C(=O)N4C[C@@H]4CCN(C(=O)C5(O)CC5)C4)c(F)c3)ccc2o1` ; its IC50 = 575

# molecule `O=C(C1CC1)N1CC(CN2C(=O)C3(CC3)N=C2c2ccc(-c3ccc(-n4ccnc4)nc3)cc2F)C1` ; its IC50 = 5890

# molecule `Cn1cc(-c2ccc(-c3ccc(C4=NC5(CC5)C(=O)N4CC4CN(C(=O)C5(C)CC5)C4)c(F)c3)cc2)cn1` ; its IC50 = 77.6

----------
Would you kindly list IC50 for each of these molecules?
# System: LNCaP-Vancouver prostate cells
# protocol: In vitro LNCaP Vancouver prostate cell proliferation assay in lipid reduced medium
# Assay type: cell-based
# condition-info: read-out: pIC50 LNCaP_Vancouver prostate cell (converted)

# molecule Cn1ncc2cc(-c3ccc(C4=NC5(CC5)C(=O)N4C[C@@H]4CCN(C(=O)C5(O)CC5)C4)cc3)ccc21 [compound 200] ; its IC50 = ~0.0339 µM

# molecule Cn1cc(-c2ccc(-c3ccc(C4=NC5(CC5)C(=O)N4CC4CN(C(=O)C5CC5)C4)cc3)nc2)cn1 [compound 534] ; its IC50 = ~5.62 µM

# molecule Cc1cc(-c2ccc3[nH]ncc3c2)ccc1C1=NC2(CC2)C(=O)N1CC1CN(C(=O)C2CC2)C1 [compound 293] ; its IC50 = ~0.513 µM

----------
# Tested on: LNCaP-Vancouver prostate cells
# protocol: In vitro LNCaP Vancouver prostate cell proliferation assay in lipid reduced medium
# Assay type: cell-based
# condition-info: read-out: pIC50 LNCaP_Vancouver prostate cell (converted)
quantity-name: IC50 (nM)
Number in nM, nothing else.

# molecule O=C(N1CC(CN2C(=O)C3(CC3)N=C2c2ccc(-c3ccc4cccc(F)c4c3)cc2F)C1)C1(O)CC1 [compound 374] ; its IC50 = 87.1

# molecule O=C(N1CC[C@@H](CN2C(=O)C3(CC3)N=C2c2ccc(-c3ccc(Cl)cc3F)cc2)C1)C1(O)CC1 [compound 202] ; its IC50 = 550

# molecule O=C(C1CC1)N1CC(CN2C(=O)C3(CC3)N=C2c2ccc(-c3ccc4cc(F)ccc4n3)cc2F)C1 [compound 228] ; its IC50 = 759

# molecule O=C(C1CC1)N1CC(CN2C(=O)C3(CC3)N=C2c2ccc(-c3ccc4ccccc4n3)cc2)C1 [compound 345] ; its IC50 = 1200

# molecule Cc1cc(-c2ccc3c(cnn3C)c2)ccc1C1=NC2(CC2)C(=O)N1CC1CN(C(=O)C2(C)CC2)C1 [compound 207] ; its IC50 = 513

# molecule Cc1cc(-c2cccc(SC3CC3)c2)ccc1C1=NC2(CC2)C(=O)N1C[C@@H]1CCN(C(=O)C2CC2)C1 [compound 642] ; its IC50 = 6170

# molecule O=C(C1CC1)N1CC[C@@H](CN2C(=O)C3(CC3)N=C2c2ccc(-c3ccc4sccc4c3)cc2F)C1 [compound 241] ; its IC50 = 166

# molecule Cc1sc2ccc(-c3ccc(C4=NC5(CC5)C(=O)N4C[C@@H]4CCN(C(=O)C5CC5)C4)cc3)cc2c1C [compound 296] ; its IC50 = 3630

# molecule O=C(C1CC1)N1CC[C@@H](CN2C(=O)C3(CC3)N=C2c2ccc(-c3ccc4cc(F)ccc4c3)cc2)C1 [compound 311] ; its IC50 = 302

# molecule O=C([C@H]1CCCO1)N1CC[C@@H](CN2C(=O)C3(CCOC3)N=C2c2ccc(-c3ccc4cccnc4c3)cc2)C1 (some centres unmarked) [compound 682] ; its IC50 = 1000

# molecule O=C(C1CC1)N1CC[C@@H](CN2C(=O)C3(CC3)N=C2c2ccc(-c3ccc4c(c3)COCC4)cc2)C1 [compound 453] ; its IC50 = 2950

# molecule Cn1ncc2cc(-c3ccc(C4=NC5(CCN(C(=O)C(F)(F)F)CC5)C(=O)N4C[C@@H]4CCN(C(=O)C5CC5)C4)cc3)ccc21 [compound 752] ; its IC50 = 3980

# molecule COCc1c2ccc(-c3ccc(C4=NC5(CC5)C(=O)N4C[C@@H]4CCN(C(=O)C5CC5)C4)cc3)cc2nn1C [compound 486] ; its IC50 = 4470

# molecule Cc1cc(-c2cccc3c2cnn3C)ccc1C1=NC2(CC2)C(=O)N1CC1CN(C(=O)C2(C)CC2)C1 [compound 599] ; its IC50 = 912

# molecule Cc1nc2cc(-c3ccc(C4=NC5(CC5)C(=O)N4CC4CN(C(=O)C5CC5)C4)cc3)ccc2s1 [compound 562] ; its IC50 = 3090

# molecule Cn1nc(N)c2ccc(-c3ccc(C4=NC5(CC5)C(=O)N4C[C@@H]4CCN(C(=O)C5CC5)C4)cc3)cc21 [compound 483] ; its IC50 = 380

# molecule O=C(C1CC1)N1CC(CN2C(=O)C3(CC3)N=C2c2ccc(-c3ccc4ccc(F)cc4c3)cc2F)C1 [compound 324] ; its IC50 = 158

# molecule Cc1cc(-c2ccc3c(cnn3C)c2)ccc1C1=NC2(CC2)C(=O)N1CC1CN(C(=O)C(C)C)C1 [compound 473] ; its IC50 = 2190

# molecule Cn1cc(-c2ccc(-c3ccc(C4=NC5(CC5)C(=O)N4C[C@@H]4CCN(C(=O)C5(O)CC5)C4)c(F)c3)cc2)cn1 [compound 379] ; its IC50 = 5.01

# molecule N#CCc1c[nH]c2ccc(-c3ccc(C4=NC5(CC5)C(=O)N4C[C@@H]4CCN(C(=O)C5CC5)C4)cc3)cc12 [compound 212] ; its IC50 = 110

# molecule Cc1cc(-c2ccc3c(cnn3C)c2)ccc1C1=NC2(CC2)C(=O)N1CC1CN(C(=O)C2(C)COC2)C1 [compound 496] ; its IC50 = 1740

# molecule Cc1ccnc2cc(-c3ccc(C4=NC5(CC5)C(=O)N4CC4CN(C(=O)C5CC5)C4)cc3)ccc12 [compound 554] ; its IC50 = 646

# molecule COc1ccc2cc(-c3ccc(C4=NC5(CC5)C(=O)N4CC4CN(C(=O)C5(C)CC5)C4)c(C)c3)ccc2c1 [compound 332] ; its IC50 = 107

# molecule O=C(N1CCCC1)N1CC[C@@H](CN2C(=O)C3(CCOC3)N=C2c2ccc(-c3ccc4cccnc4c3)cc2)C1 (some centres unmarked) [compound 685] ; its IC50 = 3020

# molecule Cc1cc(-c2ccc(-c3cnn(C)c3)cc2)ccc1C1=NC2(CC2)C(=O)N1CC1CN(C(=O)C2CC2)C1 [compound 333] ; its IC50 = 537
